Entry source: PubChem BioAssay AID1918938

Test system: 556581-035-R-J1-PDC complex spheroid viability;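 note: spheroids exposed to agents for seven days; 100% = DMSO vehicle control wells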
Experiment: Anticancer human tumor 556581-035-R-J1-PDC patient-derived ovarian carcinoma cell line growth inhibition
Conditions: second compound 1 µM; first compound 3 µM; hits give low values
Friendly reminder: viability, T/C below 20% is class 1, at or above is class 0.

A selection of reference data follows.
Lookup: # check: viability, T/C < 20% for COc1cc(C2c3cc4c(cc3C(OC3OC5COC(C)OC5C(O)C3O)C3COC(=O)C23)OCO4)cc(OC)c1O (stereo unspecified) + NC1CCC(NC2CC2c2ccccc2)CC1
Found: class 1

Lookup: One more compound: NS(=O)(=O)OCC1CC(n2ccc3c(NC4CCc5ccccc54)ncnc32)CC1O (stereo unspecified) + NC1CC1c1ccc(-c2cccc(O)c2)cc1
Found: class 0

Lookup: One more compound: Nc1ccccc1NC(=O)c1ccc(CNC(=O)OCc2cccnc2)cc1 + NC1CC1c1ccc(-c2cccc(O)c2)cc1
Found: class 1

Lookup: One more compound: NS(=O)(=O)OCC1CC(n2ccc3c(NC4CCc5ccccc54)ncnc32)CC1O (stereo unspecified) + NC1CCC(NC2CC2c2ccccc2)CC1
Found: class 0

Lookup: One more compound: COc1cc(C2c3cc4c(cc3C(OC3OC5COC(C)OC5C(O)C3O)C3COC(=O)C23)OCO4)cc(OC)c1O (stereo unspecified) + NC1CC1c1ccc(-c2cccc(O)c2)cc1
Found: class 1

Now take the following compound into account.
Lookup: # check: viability, T/C < 20% for O=C(C=Cc1cccc(S(=O)(=O)Nc2ccccc2)c1)NO + NC1CC1c1ccc(-c2cccc(O)c2)cc1
Found: class 1
